Every entry's value here was drawn from patent US20240190824A1.

Examples of molecules with documented IC50 follow.
molecular target: human TREK-1 (Homo sapiens (Human), UniProt O95069); assay: TREK-1 Thallium (Tl+) flux assay; details: CHO-K1 cells stably expressing human TREK-1
Sequence (O95069 whole entry): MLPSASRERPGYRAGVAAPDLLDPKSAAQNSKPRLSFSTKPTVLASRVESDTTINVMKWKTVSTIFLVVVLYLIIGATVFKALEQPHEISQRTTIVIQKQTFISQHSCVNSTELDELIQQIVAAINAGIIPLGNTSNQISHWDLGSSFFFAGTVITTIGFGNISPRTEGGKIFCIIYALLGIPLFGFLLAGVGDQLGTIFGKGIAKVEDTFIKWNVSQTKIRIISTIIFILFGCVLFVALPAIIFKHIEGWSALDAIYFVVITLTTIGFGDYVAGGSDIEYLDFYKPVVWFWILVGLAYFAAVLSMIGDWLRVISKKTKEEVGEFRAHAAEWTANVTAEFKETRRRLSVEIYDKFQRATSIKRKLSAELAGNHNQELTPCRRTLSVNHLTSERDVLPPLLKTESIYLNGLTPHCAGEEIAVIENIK
API: value field is a number in nM; no unit string.

Below, each entry is followed by its recorded IC50 result.
MOLECULE	TARGET UNDER TEST	UNIT ABBREVIATION	IC50
Cc1cc(C#Cc2ccccc2)cnc1NC(=O)c1cc(C#N)ccc1Cl	human TREK-1 (Homo sapiens (Human), UniProt O95069)	nM	810
Cc1cc(C#Cc2ccccc2)cnc1NC(=O)c1cc(-c2noc(C3CCOC3)n2)ccc1Cl (stereo not shown)	human TREK-1 (Homo sapiens (Human), UniProt O95069)	nM	50
Cc1cc(C#Cc2cnccn2)cnc1NC(=O)c1cc(NC(=O)OC(C)(C)C)ccc1Cl	human TREK-1 (Homo sapiens (Human), UniProt O95069)	nM	470

Shift focus to the following entry.
Fill in: IC50 of Cc1cc(C#Cc2ccccc2)cnc1NC(=O)c1cc(OC[C@H]2COCCO2)ccc1Cl is ___
110

----------
molecular target: UniProt:O95069; assay: TREK-1 Thallium (Tl+) flux assay; settings: CHO-K1 cells stably expressing human TREK-1
Examples of compounds with documented log10(IC50) follow.
# log10 transformed; quantity=IC50; unit=nM

Below, each entry is followed by its recorded log10(IC50) result.
CPD SMILES	TARGET UNDER TEST	MEASURED
O=C(Nc1ncc(C#Cc2ccccc2)cc1F)c1cc(NC(=O)C2(F)CC2)ccc1Cl	UniProt:O95069	2.23
Cc1cc(C#Cc2ccccc2)cnc1NC(=O)c1cc(-c2ccnn2C)ccc1Cl	UniProt:O95069	2.20
Cc1cc(C#Cc2ccccc2)cnc1NC(=O)c1cc(-c2nnco2)ccc1Cl	UniProt:O95069	2.67
Cc1cc(C#Cc2ccccc2)cnc1NC(=O)c1cc(-c2cnn(CCN3CCOCC3)c2)ccc1Cl	UniProt:O95069	2.23
CC(C)(C)OC(=O)Nc1ccc(Cl)c(C(=O)Nc2ncc(-c3cnn(-c4ccc(F)cc4)c3)cc2F)c1	UniProt:O95069	2.11
CC(=O)Nc1ccc(Cl)c(C(=O)Nc2ccc(OCc3ccccc3)cc2C)c1	UniProt:O95069	3.01

Fill in: log10(IC50) of Cc1cc(C#Cc2ccccc2)cnc1NC(=O)c1cc(-c2cnn(C3CCOCC3)c2)ccc1Cl is ___
2.30

Fill in: log10(IC50) of Cc1cc(-c2ccc(-c3ccccc3)s2)cnc1NC(=O)c1cc(NC(=O)OC(C)(C)C)ccc1Cl is ___
3.26

----------
molecular target: human TREK-1 (Homo sapiens (Human)); assay: TREK-1 Thallium (Tl+) flux assay; settings: CHO-K1 cells stably expressing human TREK-1
RECORDED METRIC: pIC50
Please note pIC50 is a logarithmic value: minus log10 of concentration in mol/L. Answer with that number alone.

Below, each entry is followed by its recorded pIC50 result.
COMPOUND	pIC50
Cc1cc(C#Cc2ccccc2)cnc1NC(=O)c1cc(C(=O)NC(C)(C)CO)ccc1Cl	6.74
Cc1cc(C#Cc2cccc(F)c2)cnc1NC(=O)c1cc(C(=O)N2CC(C)(O)C2)ccc1Cl	6.62
Cc1cc(C#Cc2ccccc2)cnc1N1Cc2ccc(OCC3CCOCC3)cc2C1=O	6.41

Shift focus to the following entry.
pIC50 of Cc1cc(C#Cc2ccccc2)cnc1NC(=O)c1cc(NC(=O)C2COCCO2)ccc1Cl (stereo not shown) on human TREK-1 (Homo sapiens (Human))?
6.59

----------
biological target: human TREK-1 (Homo sapiens (Human)); test: TREK-1 Thallium (Tl+) flux assay; settings: CHO-K1 cells stably expressing human TREK-1
RECORDED METRIC: pIC50
Please note pIC50 is a logarithmic value: minus log10 of concentration in mol/L. Answer with that number alone.

COMPOUND	pIC50
O=C(Nc1ncc(C#Cc2ccccc2)cc1F)c1cc(-c2noc(C3CCOC3)n2)ccc1Cl (centres unmarked)	7.10
O=C(Nc1ncc(C#Cc2ccccc2)cc1F)c1cc(-c2cnn(C3COC3)c2)ccc1Cl	6.96
Cc1cc(C#Cc2ccccc2)cnc1NC(=O)c1cc(NC(=O)C2CC(C)(O)C2)ccc1Cl (centres unmarked)	6.55

Fill in: pIC50 of Cc1cc(C#Cc2ccccc2)cnc1NC(=O)c1cc(C(=O)N2CC(O)C2)ccc1Cl is ___
6.52

Fill in: pIC50 of Cc1cc(OCc2ccccc2)ccc1NC(=O)c1cc(NC(=O)OC(C)(C)C)ccc1Cl is ___
6.34

Fill in: pIC50 of Cc1cc(C#Cc2cccc(F)c2)nc(C)c1NC(=O)c1cc(NC(=O)[C@H]2C[C@@H]2C)ccc1Cl is ___
5.96

Fill in: pIC50 of Cc1cc(C#Cc2ccccc2)cnc1NC(=O)c1nc(NC(=O)C2CC2C)ccc1Cl (centres unmarked) is ___
6.54

Fill in: pIC50 of Cc1cc(C#Cc2ccccc2)cnc1NC(=O)c1cc(OCC2COCCO2)ccc1Cl (centres unmarked) is ___
6.89

----------
molecular target: human TREK-1 (Homo sapiens (Human)); assay: TREK-1 Thallium (Tl+) flux assay; settings: CHO-K1 cells stably expressing human TREK-1
Examples of compounds with documented pIC50 follow.
Please note pIC50 is a logarithmic value: minus log10 of concentration in mol/L. Answer with that number alone.

COMPOUND	TARGET UNDER TEST	MEASURED
CC(C)(C)OC(=O)Nc1ccc(Cl)c(C(=O)Nc2c(F)cc(C#Cc3ccccc3)nc2F)c1 [Compound 40]	human TREK-1 (Homo sapiens (Human))	6.33
Cc1cc(C#Cc2ccccc2)cnc1NC(=O)c1cc(C(=O)N2CC(O)(C(F)(F)F)C2)ccc1Cl [Compound 79]	human TREK-1 (Homo sapiens (Human))	6.06
Cc1cc(C#Cc2ccccc2)cnc1NC(=O)c1cc(C(=O)N2CC(F)(F)C2)ccc1Cl [Compound 16]	human TREK-1 (Homo sapiens (Human))	6.49

Shift focus to the following entry.
Fill in: pIC50 of Cc1cc(C#Cc2ccccc2)cnc1NC(=O)c1cc(NC(=O)[C@H]2C[C@@H]2C)ccc1Cl [Compound 27] is ___
7.00

----------
Examples of compounds with documented pIC50 follow.
biological target: human TREK-1 (Homo sapiens (Human), UniProt O95069); assay: TREK-1 Thallium (Tl+) flux assay; conditions: CHO-K1 cells stably expressing human TREK-1
Please note pIC50 is a logarithmic value: minus log10 of concentration in mol/L. Answer with that number alone.

Below, each entry is followed by its recorded pIC50 result.
CPD SMILES	pIC50
Cc1cc(C#Cc2ccccc2)cnc1NC(=O)c1cc(NC(=O)OC(C)(C)C)ccc1F	5.97
Cc1cc(C#Cc2ccccc2)cnc1NC(=O)c1cc(C(=O)N2CC(F)C2)ccc1Cl	6.41
Cc1cc(C)n(C(=O)c2ccc(Cl)c(C(=O)Nc3ncc(C#Cc4ccccc4)cc3C)c2)n1	6.44

Shift focus to the following entry.
Fill in: pIC50 of Cn1cc(-c2ccc(Cl)c(C(=O)Nc3ncc(C#Cc4ccccc4)cc3F)c2)cn1 is ___
6.89

----------
Examples of molecules with documented pIC50 follow.
molecular target: human TREK-1 (Homo sapiens (Human), UniProt O95069); experiment: TREK-1 Thallium (Tl+) flux assay; details: CHO-K1 cells stably expressing human TREK-1
Please note pIC50 is a logarithmic value: minus log10 of concentration in mol/L. Answer with that number alone.

Below, each entry is followed by its recorded pIC50 result.
MOLECULE	RECORDED METRIC	MEASURED
Cc1nn(C)cc1-c1ccc(Cl)c(C(=O)Nc2ncc(C#Cc3ccccc3)cc2F)c1 [Compound 68]	pIC50	6.66
Cc1cc(C#Cc2ccccc2)cnc1NC(=O)c1cc(NC(=O)C2CC2)ccc1Cl [Compound 9]	pIC50	6.74
Cc1cc(C#Cc2ccccc2F)cnc1NC(=O)c1cc(NC(=O)OC(C)(C)C)ccc1Cl [Compound 42]	pIC50	6.27

Shift focus to the following entry.
Fill in: pIC50 of Cc1cc(C#Cc2ccccc2)nc(C)c1NC(=O)c1cc(NC(=O)OC(C)(C)C)ccc1Cl [Compound 48] is ___
6.02

----------
target: human TREK-1 (Homo sapiens (Human), UniProt O95069); test: TREK-1 Thallium (Tl+) flux assay; conditions: CHO-K1 cells stably expressing human TREK-1
Examples of molecules with documented IC50 follow.
API: value field is a number in nM; no unit string.

MOLECULE	UNIT ABBREVIATION	IC50
Cc1cc(C#Cc2ccccc2)cnc1NC(=O)c1cc(NC(=O)OC(C)(C)C)cc(F)c1Cl [Compound 35]	nM	400

IC50 of O=C(Nc1ncc(-c2ccn(-c3ccc(F)cc3)n2)cc1F)c1cc(NC(=O)C2COCCO2)ccc1Cl (centres unmarked) [Compound 98] on human TREK-1 (Homo sapiens (Human), UniProt O95069)?
560

IC50 of Cc1nc(C)c(-c2ccc(Cl)c(C(=O)Nc3ncc(C#Cc4ccccc4)cc3C)c2)s1 [Compound 70] on human TREK-1 (Homo sapiens (Human), UniProt O95069)?
260

IC50 of Cc1cc(-c2cnn(-c3ccccc3)c2)cnc1NC(=O)c1cc(NC(=O)OC(C)(C)C)ccc1Cl [Compound 93] on human TREK-1 (Homo sapiens (Human), UniProt O95069)?
190

IC50 of COCCOc1ccc(Cl)c(C(=O)Nc2ncc(C#Cc3ccccc3)cc2C)c1 [Compound 24] on human TREK-1 (Homo sapiens (Human), UniProt O95069)?
230

IC50 of Cc1cc(C#Cc2ccccc2)cnc1NC(=O)c1c(Cl)ccc(NC(=O)OC(C)(C)C)c1F [Compound 34] on human TREK-1 (Homo sapiens (Human), UniProt O95069)?
360

IC50 of Cc1cc(C#Cc2ccccc2)cnc1NC(=O)c1nc(NC(=O)OC(C)(C)C)ccc1Cl [Compound 43] on human TREK-1 (Homo sapiens (Human), UniProt O95069)?
550

IC50 of CC1CC1C(=O)Nc1ccc(Cl)c(C(=O)Nc2ncc(C#Cc3ccccc3)cc2F)c1 (centres unmarked) [Compound 3] on human TREK-1 (Homo sapiens (Human), UniProt O95069)?
70
